Biological target: KCa3.1 (Homo sapiens)
Sequence (O15554 whole entry): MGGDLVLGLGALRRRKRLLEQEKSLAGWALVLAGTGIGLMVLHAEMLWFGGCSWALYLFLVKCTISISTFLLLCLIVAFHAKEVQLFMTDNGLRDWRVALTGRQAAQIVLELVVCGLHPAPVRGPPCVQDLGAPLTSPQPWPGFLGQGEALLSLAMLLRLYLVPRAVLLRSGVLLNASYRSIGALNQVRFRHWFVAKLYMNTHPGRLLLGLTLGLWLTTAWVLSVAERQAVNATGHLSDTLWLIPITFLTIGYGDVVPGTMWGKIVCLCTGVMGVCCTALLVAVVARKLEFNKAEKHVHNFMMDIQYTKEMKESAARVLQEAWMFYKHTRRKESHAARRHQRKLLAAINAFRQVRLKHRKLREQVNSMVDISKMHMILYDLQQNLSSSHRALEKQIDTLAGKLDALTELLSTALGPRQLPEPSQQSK
Experiment: whole-cell perforated patch clamp, block of DC-EBIO/ionomycin-activated current
pIC50: −log10 of the molar value.
quantity.kind: pIC50

Give a short answer stating reported pIC50 for Clc1ccccc1C(c1ccccc1)(c1ccc(CCC[P+](c2ccccc2)(c2ccccc2)c2ccccc2)cc1)n1cccn1 (stereo not shown) .
~5.70
